# System: DU-145 prostate
# protocol: NCI-60 one-dose screen, 48 h (100 = growth as untreated, 0 = no growth, -100 = all killed)
# test-parameters: 10 µM unless noted
This is part of a sample that, as a whole, favours compounds with a hit. Of some 83,000 tested, about 20% had one in any assay. The source made the active and inactive calls. How the source made its calls: active means growth percent below 10; inactive means the rest.
Below, each entry is listed with its recorded growth.

As a guide, the following entries are already answered.
Look up growth with DU-145 prostate for this molecule: O=C(N/N=C/c1ccc(Cl)cc1)c1cc(-c2cc3ccccc3o2)nn1-c1ccccc1
87% (inactive)

Look up growth with DU-145 prostate for this molecule: COc1ccc(-c2cnc(-c3ccc(Cl)cc3)[nH]2)cc1OC
78.7% (inactive)

Look up growth with DU-145 prostate for this molecule: Cc1cc([C@@H](C)Nc2ccccc2C(=O)O)c2nc(N3CCOCC3)cc(=O)n2c1
57.2% (inactive)

Look up growth with DU-145 prostate for this molecule: COc1cc2c(Oc3ccc4[nH]c(C)cc4c3F)ncnc2cc1OCCCN1CCCC1
96.8% (inactive)

Others:
Look up growth with DU-145 prostate for this molecule: CC(C)C1CCC(C)C(C2(C#N)C(N)=NC(N)=C2C#N)C1=O (stereo not drawn)
102% (inactive)

Look up growth with DU-145 prostate for this molecule: Cc1cc(O)cc(-c2c(-c3ccnc(-c4cccnc4)c3)cnn2C)c1
70.4% (inactive)

Look up growth with DU-145 prostate for this molecule: COC(=O)c1[nH]cnc1/N=N/N(C)CCO
110% (inactive)

Look up growth with DU-145 prostate for this molecule: COc1cc(F)c(F)c(Nc2ccc(I)cc2F)c1NS(=O)(=O)C1(C[C@H](O)CO)CC1
51.2% (inactive)

Look up growth with DU-145 prostate for this molecule: COc1ccc(CCCc2c3[n+](cc4c(OC)c(OC)ccc24)CCc2cc4c(cc2-3)OCO4)cc1
79.3% (inactive)

Look up growth with DU-145 prostate for this molecule: CN1CC[C@@H](c2c(O)cc(O)c3c(=O)cc(-c4ccccc4Cl)oc23)[C@@H]1CO
10.7% (inactive)

Look up growth with DU-145 prostate for this molecule: CCN1CCN(Cc2ccc(Cc3ncc(F)c(-c4cc(F)c5nc(C)n(C(C)C)c5c4)n3)nc2)CC1
60.4% (inactive)

Look up growth with DU-145 prostate for this molecule: COc1ccc(Br)cc1NC(=O)Nc1cccc2c1ccn2Cc1ccnc(N)c1
58.7% (inactive)

Look up growth with DU-145 prostate for this molecule: COc1cnc2c(c1)C(=O)c1c-2n(CCCn2ccnc2)c(=O)c2cc(Cl)ccc12
2.01% (active)

* * *

# System: OVCAR-5 ovarian
# protocol: NCI-60 one-dose screen, 48 h
# test-parameters: 10 µM unless noted
The panel holds about 83,000 compounds, 20% with a hit somewhere; the sample as a whole holds those more often. Calls of active or inactive are those of the source. The calls were made as follows: active = growth percent below 10; inactive = the rest.
The categories you may choose from are active, inactive

Observe how each entry below is paired with its result.
What outcome does the record of this test show for CCCCCCC1(/C=N/NC(N)=O)NC(=O)NC1=O (stereo not given) ?
inactive

What outcome does the record of this test show for CN(C)C[C@@H]1CCn2cc(c3ccccc32)C2=C(C(=O)NC2=O)c2cn(c3ccccc23)CCO1 ?
active

What outcome does the record of this test show for Cc1ccc(-n2nc(C(C)(C)C)cc2NC(=O)NCc2cc(F)ccc2Oc2ccc3c(cnn3CCO)c2)cc1 ?
inactive

What outcome does the record of this test show for Cn1c(=O)c(F)c(Nc2ccc(I)cc2F)c2c(=O)n(C[C@@H](O)CO)cnc21 ?
active

Others:
What outcome does the record of this test show for Cc1cc2c(-c3nc4ccccn4c3N)c(O)c(O)cc2c(O)c1-c1c(C)cc2c(-c3nc4ccccn4c3N)c(O)c(O)cc2c1O ?
inactive

What outcome does the record of this test show for CC(C)Nc1cc(-c2c[nH]c(C(=O)N[C@H](CO)c3cccc(Cl)c3)c2)c(Cl)cn1 ?
inactive

What outcome does the record of this test show for COc1cc(Nc2c(C#N)cnc3cc(OCCCN4CCN(C)CC4)c(OC)cc23)c(Cl)cc1Cl ?
inactive

What outcome does the record of this test show for CC/C(=C(\c1ccc(OCCN2CCCCCCC2)cc1)c1ccc(OC(=O)C2CCCCC2)cc1)c1ccc(Cl)cc1 ?
inactive

What outcome does the record of this test show for CCCCCCCCCCCC[n+]1ccccc1 ?
inactive

What outcome does the record of this test show for Cc1ccsc1C(NC(=O)c1ccccc1)c1cc(Cl)c2cccnc2c1O (stereo not given) ?
inactive

What outcome does the record of this test show for CC1(/C=N/NC(N)=S)NC(=O)NC1=O (stereo not given) ?
inactive
